biological target: human RXFP1 (Homo sapiens); experiment: RXFP1 Hu cAMP (Test A); assay type: cell-based; set-up: expressed in transfected cells; host or cells: Jump-In T-REx CHO-K1 cells (ThermoFisher), induced with 10 ng/ml doxycycline for 24 h; settings: RXFP1 Hu cAMP; read-out: Test A EC50
Sequence (Q9HBX9 whole entry): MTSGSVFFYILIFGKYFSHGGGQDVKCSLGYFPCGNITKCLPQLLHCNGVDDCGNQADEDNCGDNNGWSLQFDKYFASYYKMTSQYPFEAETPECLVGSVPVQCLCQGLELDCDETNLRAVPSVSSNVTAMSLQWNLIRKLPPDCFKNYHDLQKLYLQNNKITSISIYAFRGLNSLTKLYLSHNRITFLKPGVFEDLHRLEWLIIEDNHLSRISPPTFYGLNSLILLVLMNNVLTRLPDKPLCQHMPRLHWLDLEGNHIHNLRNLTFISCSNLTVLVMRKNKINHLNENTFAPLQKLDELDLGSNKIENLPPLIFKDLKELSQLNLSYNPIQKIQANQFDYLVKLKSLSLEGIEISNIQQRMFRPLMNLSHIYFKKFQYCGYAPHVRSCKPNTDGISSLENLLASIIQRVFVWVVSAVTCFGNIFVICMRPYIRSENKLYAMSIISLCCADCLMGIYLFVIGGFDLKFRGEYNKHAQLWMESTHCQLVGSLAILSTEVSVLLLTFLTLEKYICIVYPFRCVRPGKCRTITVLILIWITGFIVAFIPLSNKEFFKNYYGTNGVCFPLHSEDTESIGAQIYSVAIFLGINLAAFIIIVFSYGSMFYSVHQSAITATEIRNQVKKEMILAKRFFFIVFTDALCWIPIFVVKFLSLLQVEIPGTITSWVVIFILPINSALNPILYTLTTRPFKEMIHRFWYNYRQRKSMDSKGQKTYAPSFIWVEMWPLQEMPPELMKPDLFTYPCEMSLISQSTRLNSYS
pEC50: −log10 of the molar value.
observable: pEC50

Example compounds with recorded pEC50:
COc1cc(F)c(O[C@H]2CC[C@@](CO)(C(=O)O)CC2)cc1C(=O)N[C@@H]1[C@@H]2CC[C@@H](C2)[C@@H]1C(=O)Nc1cccc(S(=O)(=O)C(F)(F)F)c1 (racemic)	8.66
COc1cc(F)c(O[C@H]2CC[C@@](CO)(C(=O)O)CC2)cc1C(=O)NC1C2CCC(C2)C1C(=O)Nc1cccc(S(=O)(=O)C(F)(F)F)c1 (single isomer, unassigned)	9.15
COc1cc(C#N)c(O[C@H]2CC[C@@](C)(C(=O)O)CC2)cc1C(=O)N[C@@H]1[C@H]2CC[C@H](C2)[C@@H]1C(=O)NCC1(CC(C)C)CCC1	8.01

[I] COc1cc(C#N)c(O[C@H]2CC[C@@](C)(C(=O)O)CC2)cc1C(=O)N[C@@H]1[C@H]2CC[C@H](C2)[C@@H]1C(=O)NCC1CCCCCC1
[II] COc1cc(F)c(-c2ccc(C(=O)O)nc2)cc1C(=O)N[C@H]1[C@@H](C(=O)Nc2cccc(S(=O)(=O)C(F)(F)F)c2)[C@@H]2C=C[C@H]1C2 (racemic)
[III] COc1cc(F)c(O[C@H]2CC[C@@](C)(C(=O)O)CC2)cc1C(=O)N[C@H]1[C@H]2CC[C@H](CC2)[C@H]1C(=O)NCC1(C)CCC1 (racemic)
[IV] COc1cc(C#N)c(O[C@H]2CC[C@@](C)(C(=O)O)CC2)cc1C(=O)N[C@@H]1CCCC[C@@H]1C(=O)NCC1(C)CCC1
## Input Order these by pEC50, descending, and give the full ranking. Write the labels, ordered according to the request.
## Output III, I, IV, II

[P] COc1cc(F)c(-c2ccc(C(=O)O)cc2)cc1C(=O)N[C@H]1[C@@H]2CC[C@@H](C2)[C@H]1C(=O)N[C@H]1CCCN(S(=O)(=O)C(F)(F)F)C1 (single isomer, unassigned) [Example 314]
[Q] CCCCNC(=O)[C@H]1[C@@H]2CC[C@@H](C2)[C@H]1NC(=O)c1cc(O[C@H]2CC[C@@](C)(C(=O)O)CC2)c(C#N)cc1OC
[R] COc1cc(F)c(-c2ccc(OCC(=O)O)nc2)cc1C(=O)N[C@@H]1[C@H]2CC[C@H](C2)[C@@H]1C(=O)Nc1cccc(S(=O)(=O)C(F)(F)F)c1
## Input Rank descending by pEC50. API: response body holds the labels in the requested order.
## Output R, Q, P
(R: 6.85, Q: 6.57, P: 5.11)
